system: Surinam grass; experiment: Test C pre-/postemergence herbicide test; type: in vivo, Urochloa decumbens; conditions: 250 g ai/ha; scale 0 to 100 (0 no effect, 100 complete control); visual, 12 to 14 days; preemergence
Overview of reported Plant response rating, Surinam Grass across a group of compounds:
Please give only the number in your answer, with no unit.

Recorded results for 2 compounds are shown here.
{"Compound": "C#CCNC(=O)c1cccc(NC(=O)c2cc(C(C)(C)C)nn2CC)c1 [Compound 47]", "Plant response rating, Surinam Grass": 60}
{"Compound": "C#CCn1nc(C(C)(C)C)cc1C(=O)Nc1cccc(C(=O)NCC)c1 [Compound 50]", "Plant response rating, Surinam Grass": 80}

Complete the entry with Plant response rating, Surinam Grass for C=CCNC(=O)c1cccc(NC(=O)c2cc(C(C)(C)C)nn2CC)c1 [Compound 46]
60

Give Plant response rating, Surinam Grass for CCNC(=O)c1cc(NC(=O)c2cc(C(C)(C)C)nn2CC)ccc1F [Compound 58]
80

----------
test system: cocklebur; test: Test C pre-/postemergence herbicide test; type: in vivo, Xanthium strumarium; conditions: postemergence; 62 g ai/ha; scale 0 to 100
Experimental Readout: Plant response rating, Cocklebur
Field format: numeric only.

{"Chemical Smiles": "CCOC(=O)c1cccc(NC(=O)c2nn(C(C)(C)CC)nc2CC)c1", "Experimental Readout": "Plant response rating, Cocklebur", "Quantitative Result": 10}

Please report Plant response rating, Cocklebur for the following compound: CCn1nc(C(C)(C)C)cc1C(=O)Nc1cccc(OC(F)F)c1
5

Return the recorded Plant response rating, Cocklebur value; entry: C#CCn1nc(C(C)(C)C)cc1C(=O)Nc1cccc(C(=O)NCC)c1
10

Given the compound C=Cn1nc(C(C)(C)C)cc1C(=O)Nc1cccc(C(=O)NCC)c1 , write its reported Plant response rating, Cocklebur.
50

In one line, give reported Plant response rating, Cocklebur of the entry C#CCNC(=O)c1cccc(NC(=O)c2cc(C(C)(C)C)nn2CC)c1 .
50

----------
tested on: pigweed; assay: Test B pre-/postemergence herbicide test; format: in vivo, Amaranthus retroflexus; settings: 500 g ai/ha; visual rating, 0 = no effect, 100 = complete control; preemergence
Measured Plant response rating, Pigweed, listed per entry for reference.

Would you please look over these solved cases?
{"Compound": "CCc1nn(C(C)(C)C)nc1C(=O)Nc1cc(C(=O)N(C)C)ccc1F", "Target Or System": "pigweed", "Plant response rating, Pigweed": 100}
{"Compound": "C=CCN(C)C(=O)c1cccc(NC(=O)c2cc(C(C)(C)C)nn2CC)c1", "Target Or System": "pigweed", "Plant response rating, Pigweed": 100}
{"Compound": "CCn1nc(C2(C)CC2)cc1C(=O)Nc1cccc(C(=O)N(C)C)c1", "Target Or System": "pigweed", "Plant response rating, Pigweed": 100}
{"Compound": "CCn1nc(C(C)(C)C)cc1C(=O)Nc1cccc(C(=O)N2CCOCC2)n1", "Target Or System": "pigweed", "Plant response rating, Pigweed": 100}
{"Compound": "CCOC(=O)c1ccc(F)c(NC(=O)C2CN(C(C)(C)C)N=C2CC)c1 (racemic)", "Target Or System": "pigweed", "Plant response rating, Pigweed": 10}
{"Compound": "CCn1nc(C(C)(C)C)cc1C(=O)Nc1cncc(C(=O)N(C)C)c1", "Target Or System": "pigweed", "Plant response rating, Pigweed": 100}
{"Compound": "CCc1nn(C(C)(C)C)cc1C(=O)Nc1ccc(F)c(C(=O)N(CC)CC)c1", "Target Or System": "pigweed", "Plant response rating, Pigweed": 100}
{"Compound": "CCn1nc(C(C)(C)C)cc1C(=O)Nc1cccc(C(=O)N2CCCC2)n1", "Target Or System": "pigweed", "Plant response rating, Pigweed": 100}

Pending compound:
Give Plant response rating, Pigweed for CCc1nc(C(C)(C)C)sc1C(=O)Nc1cc(C(=O)N(CC)CC)ccc1F
80

----------
tested on: bermudagrass; test: Test C pre-/postemergence herbicide test; assay type: in vivo, Cynodon dactylon; details: 250 g ai/ha; scale 0 to 100 (0 no effect, 100 complete control); visual, 12 to 14 days; preemergence
Source text: […]
Experimental Readout: Plant response rating, Bermudagrass
# respond with the number and nothing more

Guide cases for Plant response rating, Bermudagrass, answers given:
{"Compound": "CCn1nc(C(C)(C)C)cc1C(=O)Nc1cccc(SC)c1 [Compound 131]", "Experimental Readout": "Plant response rating, Bermudagrass", "Quantitative Result": 95}
{"Compound": "CCn1nc(C(C)(C)C)cc1C(=O)Nc1cccc(SC(F)(F)F)c1 [Compound 130]", "Experimental Readout": "Plant response rating, Bermudagrass", "Quantitative Result": 100}
{"Compound": "CCOC(=O)c1cc(NC(=O)c2cc(C(C)(C)C)nn2CC)ccc1OC [Compound 96]", "Experimental Readout": "Plant response rating, Bermudagrass", "Quantitative Result": 85}
{"Compound": "CCNC(=O)c1cc(NC(=O)c2cc(C(C)(C)C)nn2CC)ccc1F [Compound 58]", "Experimental Readout": "Plant response rating, Bermudagrass", "Quantitative Result": 100}

Shift focus to the following entry.
Specify Plant response rating, Bermudagrass for CCOC(=O)c1cccc(NC(=O)c2cc(C(C)(C)C)nn2CC)c1C [Compound 88] and stop.
95

----------
tested on: lambsquarters; assay: Test C pre-/postemergence herbicide test; format: in vivo, Chenopodium album; conditions: 62 g ai/ha; preemergence; scale 0 to 100
Experimental Readout: Plant response rating, Lambsquarters
Response field accepts a number only; no unit should be typed.

{"Compound": "CCOC(=O)c1cccc(NC(=O)c2nn(C(C)(C)CC)nc2CC)c1", "Plant response rating, Lambsquarters": 5}
{"Compound": "CCc1nn(C(C)(C)C)nc1C(=O)Nc1cccc(C(=O)N(C)CC)c1", "Plant response rating, Lambsquarters": 100}
{"Compound": "Cc1nn(C(C)(C)C)nc1C(=O)Nc1cccc(C(=O)N2CC=CC2)c1", "Plant response rating, Lambsquarters": 100}
{"Compound": "CCc1nn(C(C)(C)C)nc1C(=O)Nc1cccc(C(=S)N(C)C)c1", "Plant response rating, Lambsquarters": 100}
{"Compound": "CCNC(=O)c1cccc(NC(=O)c2sc(C(C)(C)C)nc2CC)n1", "Plant response rating, Lambsquarters": 80}

Using the record for CCNC(=O)c1cccc(NC(=O)c2nn(C(C)(C)C)nc2C)c1 , state its measured Plant response rating, Lambsquarters.
100

Respond only with Plant response rating, Lambsquarters recorded for CCC1=NN(C(C)(C)C)CC1C(=O)Nc1cc(C(=O)N(C)C)ccc1F (racemic)
100

Consider the compound CCn1nc(C(C)(C)C)cc1C(=O)Nc1cccc(C(N)=O)n1 . State its measured Plant response rating, Lambsquarters.
80

For the compound CCc1nn(C(C)(C)C)cc1C(=O)Nc1cc(C(=O)N(CC)CC)ccc1F , report Plant response rating, Lambsquarters.
95

----------
Measured Plant response rating, Johnsongrass, listed per entry for reference.
tested on: johnsongrass; experiment: Test C pre-/postemergence herbicide test; type: in vivo, Sorghum halepense; details: 250 g ai/ha; scale 0-100; preemergence
Number only, no unit.

{"Chemical Smiles": "CCc1nn(C(C)(C)C)nc1C(=O)Nc1cccc(C(=O)N(C)CC)c1", "Plant response rating, Johnsongrass": 100}
{"Chemical Smiles": "CCn1nc(C(C)(C)C)cc1C(=O)Nc1cc(C(=S)N(C)C)ccc1F", "Plant response rating, Johnsongrass": 100}
{"Chemical Smiles": "CCNC(=O)c1cccc(NC(=O)c2sc(C(C)(C)C)nc2C)c1", "Plant response rating, Johnsongrass": 60}
{"Chemical Smiles": "CCn1nc(C(C)(C)C)cc1C(=O)Nc1cc(C(=S)N(C)C)ccn1", "Plant response rating, Johnsongrass": 100}

Consider the molecule CCc1nn(C(C)(C)C)nc1C(=O)Nc1cccc(C(=S)N(C)C)c1 and give its recorded Plant response rating, Johnsongrass.
100

----------
system: bermudagrass; test: Test C pre-/postemergence herbicide test; assay type: in vivo, Cynodon dactylon; settings: 500 g ai/ha; scale 0 to 100 (0 no effect, 100 complete control); visual, 12 to 14 days; preemergence
Experimental Readout: Plant response rating, Bermudagrass
Give the value as a plain number.

Please list Plant response rating, Bermudagrass recorded for the compound CCC1=NN(C(C)(C)C)CC1C(=O)Nc1cc(C(=O)N(C)C)ccc1F (racemic) [Compound 343]
90

# return recorded Plant response rating, Bermudagrass for entry C=CCNC(=O)c1cccc(NC(=O)c2nn(C(C)(C)C)nc2CC)c1 [Compound 414]
100

# return recorded Plant response rating, Bermudagrass for input Cc1nn(C(C)(C)C)nc1C(=O)Nc1cccc(C(=O)N2CC=CC2)c1 [Compound 393]
100

Give recorded Plant response rating, Bermudagrass. CCc1nn(C(C)(C)C)nc1C(=S)Nc1cccc(C(=S)N(C)C)c1 [Compound 396]
100
